Biological target: Prothrombin (Homo sapiens, UniProt P00734)
// classify: if (Ki < 4 nM) T else F

>  <MOLECULE>
CC1=CC(C(=O)NC(CCCCN)C(=O)C(=O)NCc2ccc(C(N)=O)cc2)N2C(=O)C(N)(Cc3ccccc3)C(=O)N2C1 (stereo not given)

>  <TARGET>
Prothrombin (Homo sapiens, UniProt P00734)

>  <CATEGORY_LABEL>
T

$$$$
>  <MOLECULE>
CC1=CC(C(=O)NC(CCCCN)C(=O)C(=O)NCCc2ccc(C(N)=O)cc2)N2C(=O)C(Cc3ccccc3)(Cc3ccccc3)C(=O)N2C1 (stereo not given)

>  <TARGET>
Prothrombin (Homo sapiens, UniProt P00734)

>  <CATEGORY_LABEL>
T

$$$$
>  <MOLECULE>
CCC1(N)C(=O)N2C(Cc3ccccc3)C=CC(C(=O)NC(CCCCN)C(=O)C(N)=O)N2C1=O (stereo not given)

>  <TARGET>
Prothrombin (Homo sapiens, UniProt P00734)

>  <CATEGORY_LABEL>
F

$$$$
>  <MOLECULE>
CC1=CC(C(=O)NC(CCCCN)C(=O)C(=O)NCCc2ccc(C(N)=O)cc2)N2C(=O)C(CC(C)C)(CC(C)C)C(=O)N2C1 (stereo not given)

>  <TARGET>
Prothrombin (Homo sapiens, UniProt P00734)

>  <CATEGORY_LABEL>
F

$$$$
>  <MOLECULE>
C=CCC1(CC=C)C(=O)N2CC(C)=CC(C(=O)NC(CCCCN)C(=O)C(=O)NCCc3ccc(C(N)=O)cc3)N2C1=O (stereo not given)

>  <TARGET>
Prothrombin (Homo sapiens, UniProt P00734)

>  <CATEGORY_LABEL>
F

$$$$
